Where do these numbers come from? They come from patent US20100227824A1.

system name: T1, Mig (CXCL9) (UniProt Q07325 23-125)
T1 construct: Bought chemokine
T1 sequence (looked up): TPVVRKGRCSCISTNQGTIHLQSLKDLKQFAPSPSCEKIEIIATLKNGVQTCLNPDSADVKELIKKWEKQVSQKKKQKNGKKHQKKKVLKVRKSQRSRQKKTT
measurement description: SPR, ProteOn XPR36, GLM chip
property measured: pKd
Kindly note that pKd refers to -log10 of the concentration in mol/L and answer with the value alone.

Request: // query pKd value for entry VTTFFDYDYGAPC (Peptide used in SPR; also called CB6R2) [CBP6 (VTTFFDYDYGAPC, from the N-terminal of CCR2)]
Result: 4.55
